B1: C10orf62 (parent)
chain: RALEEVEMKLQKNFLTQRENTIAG

Variants of: B1
Assay: protein stability index of a GFP-peptide fusion (GPS, HEK-293T) (PSI 1-6); higher = more stable;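 note: lentivirally expressed fusions sorted by FACS into six bins by GFP to DsRed ratio, PSI derived from sequencing read proportions per bin multiplied by bin number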
Settings: c terminus: a fixed tail appended
This section presents variants with their documented protein stability index values.

variant-designation: E7V
protein stability index: 1.27

variant-designation: I22E
protein stability index: 4.75

variant-designation: E19K
protein stability index: 3.53

variant-designation: F14K
protein stability index: 4.11

variant-designation: A23L
protein stability index: 3.02

variant-designation: N20A
protein stability index: 3.24

variant-designation: K12I
protein stability index: 2.15

variant-designation: T16D
protein stability index: 4.09

variant-designation: E4K
protein stability index: 3.36

variant-designation: V6N
protein stability index: 4.33

variant-designation: F14G
protein stability index: 4.11

variant-designation: N20I
protein stability index: 2.61

variant-designation: R18I
protein stability index: 3.09

variant-designation: Q11Y
protein stability index: 2.78

variant-designation: E5I
protein stability index: 1.93

variant-designation: V6W
protein stability index: 3.76

variant-designation: E19V
protein stability index: 2.3

variant-designation: L3I
protein stability index: 4.17

variant-designation: L3S
protein stability index: 4.05

variant-designation: Q11M
protein stability index: 2.64

variant-designation: M8V
protein stability index: 3.35

variant-designation: E4Y
protein stability index: 2.56

variant-designation: A23Q
protein stability index: 3.64

variant-designation: E19I
protein stability index: 2.04

variant-designation: M8R
protein stability index: 3.38

variant-designation: I22C
protein stability index: 3.92

variant-designation: G24I
protein stability index: 2.31

variant-designation: I22D
protein stability index: 4.11

variant-designation: Q11K
protein stability index: 3.31

variant-designation: Q17W
protein stability index: 2.92

variant-designation: T16I
protein stability index: 3.06

variant-designation: K12V
protein stability index: 2.31

variant-designation: T16G
protein stability index: 4.06

variant-designation: E4I
protein stability index: 1.99

variant-designation: N20L
protein stability index: 2.45

variant-designation: E7D
protein stability index: 3.69

variant-designation: G24W
protein stability index: 3.48

variant-designation: E7H
protein stability index: 2.17

variant-designation: L3Q
protein stability index: 4.47

variant-designation: Q17I
protein stability index: 2.89

variant-designation: L3P
protein stability index: 4.26

variant-designation: L15S
protein stability index: 4.38

variant-designation: T21D
protein stability index: 3.92

variant-designation: K12C
protein stability index: 3.3

variant-designation: I22S
protein stability index: 3.88

variant-designation: E7P
protein stability index: 3.98

variant-designation: G24F
protein stability index: 2.37

variant-designation: R1T
protein stability index: 4.32

variant-designation: L15R
protein stability index: 3.94

variant-designation: I22G
protein stability index: 4.34

variant-designation: A2E
protein stability index: 4.41

variant-designation: E19H
protein stability index: 3.13

variant-designation: E5A
protein stability index: 2.7

variant-designation: N20C
protein stability index: 3.07

variant-designation: M8C
protein stability index: 3.58

variant-designation: N20T
protein stability index: 3.7

variant-designation: Q11F
protein stability index: 2.44

variant-designation: L10R
protein stability index: 3.4

variant-designation: M8K
protein stability index: 2.63

variant-designation: V6F
protein stability index: 3.76

variant-designation: N13R
protein stability index: 3.42

variant-designation: R18G
protein stability index: 3.73

variant-designation: K12M
protein stability index: 2.86

variant-designation: M8S
protein stability index: 4.08

variant-designation: E19T
protein stability index: 2.92

variant-designation: K12S
protein stability index: 2.77

variant-designation: N13K
protein stability index: 3.3

variant-designation: A23M
protein stability index: 3.05

variant-designation: I22W
protein stability index: 2.38

variant-designation: M8W
protein stability index: 2.81

variant-designation: F14T
protein stability index: 4.11

variant-designation: Q11I
protein stability index: 2.13

variant-designation: L15E
protein stability index: 4.3

variant-designation: T21H
protein stability index: 3.69

variant-designation: F14S
protein stability index: 4.37

variant-designation: A2H
protein stability index: 3.55

variant-designation: M8P
protein stability index: 3.94

variant-designation: R18L
protein stability index: 2.08

variant-designation: Q17K
protein stability index: 3.5

variant-designation: E5K
protein stability index: 3.76

variant-designation: L15K
protein stability index: 4.21

variant-designation: N13G
protein stability index: 3.15

variant-designation: K9I
protein stability index: 2.08

variant-designation: L10W
protein stability index: 2.88

variant-designation: N13A
protein stability index: 2.58

variant-designation: V6P
protein stability index: 4.17

variant-designation: T16R
protein stability index: 2.81

variant-designation: T16P
protein stability index: 3.09

variant-designation: T21K
protein stability index: 3.51

variant-designation: E5N
protein stability index: 3.98

variant-designation: L10S
protein stability index: 4.66
